Literature compilation of Ki measurements on 72 kDa type IV collagenase (Homo sapiens).
Sequence (P08253 whole entry): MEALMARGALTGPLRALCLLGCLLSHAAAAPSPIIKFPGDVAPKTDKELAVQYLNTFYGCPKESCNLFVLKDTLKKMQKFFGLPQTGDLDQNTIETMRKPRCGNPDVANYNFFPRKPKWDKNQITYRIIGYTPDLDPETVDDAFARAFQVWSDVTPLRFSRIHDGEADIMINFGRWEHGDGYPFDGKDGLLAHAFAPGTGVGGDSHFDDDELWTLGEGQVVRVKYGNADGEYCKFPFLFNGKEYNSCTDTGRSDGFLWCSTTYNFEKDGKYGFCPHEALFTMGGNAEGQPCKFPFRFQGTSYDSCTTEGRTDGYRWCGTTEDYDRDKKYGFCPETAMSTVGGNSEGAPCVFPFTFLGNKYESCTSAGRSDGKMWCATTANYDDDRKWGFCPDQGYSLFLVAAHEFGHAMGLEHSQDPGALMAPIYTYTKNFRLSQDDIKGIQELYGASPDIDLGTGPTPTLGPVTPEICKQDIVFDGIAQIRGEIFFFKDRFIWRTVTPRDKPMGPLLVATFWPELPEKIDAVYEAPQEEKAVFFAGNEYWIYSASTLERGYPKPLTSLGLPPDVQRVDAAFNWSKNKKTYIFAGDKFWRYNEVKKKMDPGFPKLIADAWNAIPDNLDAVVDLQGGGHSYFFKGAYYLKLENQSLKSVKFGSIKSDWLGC
parameter_measured: Ki (nM)

# smiles_repr, experimental_value
data = [
    ("NC(=O)[C@H](CCC(=O)O)NC(=O)c1ccc(-c2cc(-c3ccccc3)cs2)cc1", 127),
]

A. C#CCN1CCC(CS(=O)(=O)c2ccc(Oc3ccccc3)cc2)(C(=O)NO)CC1
B. CN1CCC(C(=O)NO)(S(=O)(=O)c2ccc(Sc3ccccc3)cc2)CC1
C. C#CCN1CCC(CS(=O)(=O)c2ccc(Oc3ccc(C)c(C)c3)cc2)(C(=O)NO)CC1
D. CC(C)(C(=O)NO)S(=O)(=O)c1ccc(Oc2ccccc2)cc1
E. Cc1ccc(-c2ccc(CCC(=O)N[C@@H](CCC(=O)O)C(N)=O)cc2)s1
Inquiry: Kindly order the items shown according to Ki, from the highest value down. The reply should contain the labels ordered as requested.
Reply text: E, C, B, A, D

I. O=C(NO)C1(S(=O)(=O)c2ccc(Oc3ccccc3)cc2)CCNCC1
II. CC(=O)N1CCC(C(=O)NO)(S(=O)(=O)c2ccc(Sc3ccccc3)cc2)CC1
Inquiry: Min Ki? I | II # reply format: chosen label
Reply text: I
(I: 0.22 nM, II: 0.4 nM)

P. C#CCN1CCC(C(=O)NO)(S(=O)(=O)c2ccc(Sc3ccccc3)cc2)CC1
Q. O=S(=O)(/C=C/CS)c1ccc(Oc2ccccc2)cc1
R. O=C(NO)C1(S(=O)(=O)c2ccc(Oc3ccccc3)cc2)CCN(C2CC2)CC1
S. CCN1CCC(C(=O)NO)(S(=O)(=O)c2ccc(Sc3ccccc3)cc2)CC1
T. O=C(NO)C1(CS(=O)(=O)c2ccc(Oc3ccccc3)cc2)CCNCC1
Inquiry: Task for the reader: rank each entry by its Ki, from the minimum upward. Use the labels to give the requested order.
Reply text: R, P, Q, S, T
(R: 0.2 nM, P: 0.33 nM, Q: 0.53 nM, S: 0.8 nM, T: 2.8 nM)

a. CS(=O)(=O)N1CCC(C(=O)NO)(S(=O)(=O)c2ccc(Oc3ccccc3)cc2)CC1
b. CC(C)(C)OC(=O)N1CCC(CS(=O)(=O)c2ccc(Oc3ccccc3)cc2)(C(=O)NO)CC1
c. NC(=O)[C@H](CCC(=O)O)NC(=O)CCc1ccc(-c2ccc(-c3ccccc3)cc2)cc1
Inquiry: # sort list by recorded Ki, greatest to least I'd appreciate it if you listed the labels in the requested order.
Reply text: c, a, b
(c: 47 nM, a: 0.3 nM, b: 0.2 nM)
